Measured values drawn from ChEMBL document CHEMBL3507680 for this set.

Test: Human HepG2 cell viability assay in 384 well format
Type: toxicity, cell-based
Parameters: dose 125 nL, time 70.5 hour; concentration not given beside the values
Conditions: HepG2 cells, read-out: Inhibition
READOUT LABEL: cytotoxicity at 70.5 h (%)

compound=CC(C)c1noc(-c2ccc(-n3cnc(C(=O)O)c3)nc2)n1 readout_label="cytotoxicity at 70.5 h" reported_value=-15.8
compound=Cc1c(NC(=O)c2noc3c2CCCC3)cnn1C readout_label="cytotoxicity at 70.5 h" reported_value=16.1
compound=COCC(=O)N[C@H](C)c1c(-c2ccc(OC)cc2)noc1C(=O)O readout_label="cytotoxicity at 70.5 h" reported_value=-16.4
compound="CC(C)(C)c1cc2ncn(CCCN3CCCCC3CO)c(=O)c2s1 (configuration not stated)" readout_label="cytotoxicity at 70.5 h" reported_value=-14.7
compound=O=C(NCc1ccccn1)N1CC=C(c2ccccc2)CC1 readout_label="cytotoxicity at 70.5 h" reported_value=-16.2
compound=Cc1ccc(CN2C[C@@H]3CN(c4ncccn4)C[C@@H]3C2)cc1 readout_label="cytotoxicity at 70.5 h" reported_value=-4.24
compound=CCOC(=O)N1CCC2(CC1)N=C(CCC(C)C)NC2=O readout_label="cytotoxicity at 70.5 h" reported_value=-1.58

###

Test: Human HepG2 cell viability assay in 384 well format
Format: toxicity, cell-based
Design: dose 125 nL, time 70.5 hour; concentration not given beside the values
Conditions: HepG2 cells, read-out: Inhibition
Below, each entry is listed alongside its reported cytotoxicity at 70.5 h.
READOUT LABEL: cytotoxicity at 70.5 h (%)

smiles_data=O=C(NCCCc1nc(=O)[nH][nH]1)c1ccc(Cl)cn1 readout_label="cytotoxicity at 70.5 h" reported_value=-15.2
smiles_data=COc1cccc(C(=O)NCC2CCN(C(=O)c3ccoc3)CC2)c1 readout_label="cytotoxicity at 70.5 h" reported_value=-3.78
smiles_data=CC(=O)Nc1ccc(C(=O)N(C)Cc2cccc(F)c2)s1 readout_label="cytotoxicity at 70.5 h" reported_value=-105

###

Below, each entry is listed alongside its reported cytotoxicity at 70.5 h.
Test: Human HepG2 cell viability assay in 384 well format
Assay type: toxicity, cell-based
Parameters: dose 125 nL, time 70.5 hour; concentration not given beside the values
Conditions: HepG2 cells, read-out: Inhibition
READOUT LABEL: cytotoxicity at 70.5 h (%)

compound=CNC(=O)[C@@H](C1CCCCC1)N1CCC[C@H]1C(=O)NCCN1CCCC1 readout_label="cytotoxicity at 70.5 h" units_symbol=% reported_value=3.4
compound=O=C(c1cccnc1Oc1ccccc1)N1CCCn2ncnc21 readout_label="cytotoxicity at 70.5 h" units_symbol=% reported_value=4.54
compound=CN1C[C@@H]2CN(C(=O)C3CC=CC3)C[C@@H]2C1=O readout_label="cytotoxicity at 70.5 h" units_symbol=% reported_value=-5.58
compound=CCc1nnc2n1CCN(C(=O)c1cc3c(F)cccc3[nH]1)C2 readout_label="cytotoxicity at 70.5 h" units_symbol=% reported_value=-6.74
compound="CC(=O)NC1CC(C)(C)Cc2c1cnn2-c1cccc(F)c1 (stereo not drawn)" readout_label="cytotoxicity at 70.5 h" units_symbol=% reported_value=-9.9
compound=Cc1nc(C(=O)N2CCc3[nH]nc(Nc4ccccc4)c3C2)co1 readout_label="cytotoxicity at 70.5 h" units_symbol=% reported_value=-1.67
compound=Cc1cccc(N2CC[C@@H]3CN(C(=O)c4ccco4)CCO[C@@H]3C2)n1 readout_label="cytotoxicity at 70.5 h" units_symbol=% reported_value=-13.8
compound=Cc1cc(C)nc(NCCCC(=O)NCCn2ccc3ccccc32)n1 readout_label="cytotoxicity at 70.5 h" units_symbol=% reported_value=-30.2
compound=CCN1CCC2(CC1)C(=O)N(c1ccc(C)nc1)CCN2CC(C)C readout_label="cytotoxicity at 70.5 h" units_symbol=% reported_value=-3
compound=CNC(=O)[C@@]12CCO[C@@H]1CCN(Cc1ccc3c(c1)OCO3)C2 readout_label="cytotoxicity at 70.5 h" units_symbol=% reported_value=9.37
compound="Cn1ccnc1C(O)c1ccccc1N1CCN(Cc2ccsc2)CC1 (stereo not drawn)" readout_label="cytotoxicity at 70.5 h" units_symbol=% reported_value=-5.94
compound=COc1c(CNCc2cccc(CS(C)(=O)=O)c2)c(C)nn1C readout_label="cytotoxicity at 70.5 h" units_symbol=% reported_value=-17
compound="O=C(NCC1CCCO1)c1coc(Cn2cnc3ccccc32)n1 (stereo not drawn)" readout_label="cytotoxicity at 70.5 h" units_symbol=% reported_value=-4.46
compound="CCc1noc(CS(=O)(=O)CC(=O)N2c3ccccc3CC2C)n1 (stereo not drawn)" readout_label="cytotoxicity at 70.5 h" units_symbol=% reported_value=-12.6
compound=CCNC(=O)N[C@H]1C[C@@H](Cc2cc(CN3CCCCC3)on2)C1(C)C readout_label="cytotoxicity at 70.5 h" units_symbol=% reported_value=-4.13
compound=CCNc1ccnc(-c2ccnc3c2ccn3C)n1 readout_label="cytotoxicity at 70.5 h" units_symbol=% reported_value=-2.33
compound=CCCOc1cc(C)ccc1NC(=O)N(C)Cc1cnn(C)c1 readout_label="cytotoxicity at 70.5 h" units_symbol=% reported_value=-4.07
compound=CN(Cc1ccccc1NCc1cscn1)C(=O)c1cccs1 readout_label="cytotoxicity at 70.5 h" units_symbol=% reported_value=-3.79
compound=COCc1noc(C2(c3ccc(F)cc3)CC2)n1 readout_label="cytotoxicity at 70.5 h" units_symbol=% reported_value=12.6
compound=O=C(c1coc(COc2ccccc2F)n1)N1CCCO1 readout_label="cytotoxicity at 70.5 h" units_symbol=% reported_value=-6.81
compound="CC(C)c1cc(CNC(=O)N2CCC(Cc3cnn(C)c3)C2)on1 (stereo not drawn)" readout_label="cytotoxicity at 70.5 h" units_symbol=% reported_value=-11.4
compound=O=C1[C@H]2CN(Cc3ccco3)C[C@H]2CN1c1ccsc1 readout_label="cytotoxicity at 70.5 h" units_symbol=% reported_value=-11.1
compound=Clc1ccccc1-c1nnc(CNCCn2cccn2)o1 readout_label="cytotoxicity at 70.5 h" units_symbol=% reported_value=-8.51
compound="CCS(=O)(=O)CCN1CCCC1c1noc(C2CC2)n1 (stereo not drawn)" readout_label="cytotoxicity at 70.5 h" units_symbol=% reported_value=27
compound=Cc1nc(CN2C[C@@H]3CN(C(=O)c4cccn4C)C[C@@H]3C2=O)cs1 readout_label="cytotoxicity at 70.5 h" units_symbol=% reported_value=-3.56
compound=Cc1cccc(S(=O)(=O)N2C[C@@H]3C[C@@H](c4nnc(C)[nH]4)O[C@@H]3C2)c1 readout_label="cytotoxicity at 70.5 h" units_symbol=% reported_value=-1.93
compound=Cc1noc(C)c1C(=O)N1CCC(c2cc3cnccc3[nH]2)CC1 readout_label="cytotoxicity at 70.5 h" units_symbol=% reported_value=-5.78
compound=COCCN(C)C(=O)c1cc2c(s1)CCN2C(=O)C1CC1 readout_label="cytotoxicity at 70.5 h" units_symbol=% reported_value=2.55

###

Assay: Human HepG2 cell viability assay in 384 well format
Format: toxicity, cell-based
Parameters: dose 125 nL, time 70.5 hour; concentration not given beside the values
Details: HepG2 cells, read-out: Inhibition
READOUT LABEL: cytotoxicity at 70.5 h (%)

molecule="CS(=O)(=O)N1Cc2nccn2CC(CNC(=O)c2cccnc2)C1 (stereo not given)" reported_value=-5.69
molecule=CCCN(C(=O)c1ccccn1)c1nc2c(s1)CCc1c-2cnn1C reported_value=3.64
molecule=Cc1cn(CC(=O)NC2CCN(S(C)(=O)=O)CC2)c2ccccc12 reported_value=-4.04
molecule=COCc1cccc(NS(=O)(=O)c2cc(C(=O)O)cs2)c1 reported_value=-12.7
molecule=CN1CCCN(c2nc(C3CCCC3)nc3c2cnn3C)CC1 reported_value=14.5
molecule=CC(C)(C)NC(=O)c1ccn(COc2ccccc2Cl)n1 reported_value=-5.39
molecule=CC(C)NC(=O)N1CCN2C(=O)N(Cc3ccc(F)cc3)C[C@H]2C1 reported_value=-4.66
molecule="CC(Cn1ccnc1)NC(=O)C1(c2cccc(Cl)c2)CC1 (stereo not given)" reported_value=-1.52
molecule="CNc1cc(C)nc(C2COCCN2CCc2ccc(F)cc2)n1 (stereo not given)" reported_value=-4.38
molecule=Cc1c(C(=O)N2CCC3(CCC(=O)N(CCN(C)C)C3)CC2)ccn1C reported_value=0.579
molecule=CC(=O)N[C@@H]1CN(C2CCN(c3ccccc3F)CC2)C[C@H]1C(C)C reported_value=-10.5
molecule=CCN(CC)c1nc2ccsc2c(=O)n1CCC(=O)NCc1ccco1 reported_value=12.3
molecule="CCC(C)N1CCC(Oc2ccc(C(=O)NCCN(C)C)cc2Cl)CC1 (stereo not given)" reported_value=-5.39
molecule="Cn1nc(Cn2cccn2)c2c1CN(C1CCOC1)C2 (stereo not given)" reported_value=-6.25
molecule=CCN(Cc1c(C)nn(CC)c1C)S(=O)(=O)c1cn(C)nc1C reported_value=-2.98
molecule="CCOCC1CCN(C(=O)C(c2ccccc2F)N(C)C)CC1 (stereo not given)" reported_value=-8.49
molecule="COc1c(CNCC(O)COc2ccc3c(c2)OCO3)c(C)nn1C (stereo not given)" reported_value=14.9
molecule=CCCc1nc(NCc2c(C)nn(CCC)c2C)c2cnn(C)c2n1 reported_value=-9.62
molecule=Cn1ncc2c(NCCC34CCCN3CCC4)nc(C3CCCC3)nc21 reported_value=5.19
molecule="N#Cc1cccc(N2CC3(CCN(C(=O)c4ccnnc4)C3)CC2=O)c1 (stereo not given)" reported_value=-10.5
